All values here come from patent US5672470A.

Tested on: bacteria phosphotransferase system (PTS) of E. coli mutant 1219bgl+
Test Summary: microbe, parasite or virus in culture
Type: cell-based
Experimental Parameters: Escherichia coli, 5 min, pH 6.5, read-out: EC50
Entries whose IC50 is below 2000 µg/mL take YES; entries at or above 2000 µg/mL take NO.

| Compound | Classification |
| --- | --- |
| Cc1ccccc1 | YES |
| C1COCCO1 | NO |
| CCO | NO |
| ClC(Cl)Cl [Chloroform, chloroform] | YES |
| CCCCCCCCCCCCOS(=O)(=O)O | YES |
| Oc1ccccc1 | YES |

###

System: bacteria phosphotransferase system (PTS) of E. coli mutant 1219bgl+
Test Summary: microbe, parasite or virus in culture
Assay type: cell-based
Experimental Parameters: heavy metal ions as chlorides; HEPES buffer pH 6.5; 37° C., 5 min reaction; read-out: EC50
Description: Since the phosphotransferase system for the bacterial cell is an essential transport system for the reception of extracellular carbohydrates, a possible inhibition or adverse effect of the participating enzymes should be noticed to cause a reduction in the carbohydrate transport, that is the PTS constitutes a potential possibility for the detection of toxic substances in microorganisms. […]
pEC50: −log10 of the molar value.
Response key: Condition met means pEC50 >= 4; Condition not met means pEC50 < 4.

| Chemical String | Classification |
| --- | --- |
| [Cd+2] | Condition not met |
| [Pb+2] | Condition not met |
| [Cu+2] | Condition not met |
| [Ni+2] | Condition met |
| [Hg+2] | Condition met |

###

Tested on: bacteria phosphotransferase system (PTS) of E. coli mutant 1219bgl+
Test Summary: microbe, parasite or virus in culture
Type: cell-based
Experimental Parameters: Escherichia coli, pH 6.5
pEC50: −log10 of the molar value.

| Molecule | pEC50 |
| --- | --- |
| Oc1ccccc1 | 1.83 |
| Cc1ccccc1 | 3.42 |
| ClC(Cl)Cl [Chloroform, chloroform] | 1.80 |
| CCCCCCCCCCCCOS(=O)(=O)O | 4.35 |
